Assay: physchem
Format: physicochemical

compound | LogP
Clc1ccc(CC2CON=C(c3cc(Cl)ncc3Br)N2)c(Cl)c1 (stereo not shown) [7-04] | 3.45^[a]
Cc1ccc(CC(N)CC(N)=O)c(C)c1 (stereo not shown) [13-09] | 0.69^[a]
Cc1ccc(CC2CON=C(c3cc(Cl)ncc3Oc3cccc(Cl)c3F)N2)c(Cl)c1 (racemic) [Compound I-087] | 4.66^[a]
Cc1ccc(CC(CCl)NC(=O)c2cc(Cl)ncc2Br)c(Cl)c1 (stereo not shown) [17-02] | 3.94^[a]
FC(F)(F)Oc1ccc(C2CON=C(c3cc(Cl)ncc3Oc3cccc(C(F)(F)F)c3)N2)cc1 (racemic) [Compound I-055] | 4.26^[a]
Cc1ccc(CC2CON=C(c3cc(Cl)ncc3Oc3cccc(C)c3F)N2)c(Cl)c1 (stereo not shown) [Compound I-136] | 4.66^[a]
Cc1ccc(CC2CON=C(c3cc(Cl)ncc3Oc3cccc(C4CCC4)c3)N2)c(C)c1 (racemic) [Compound I-101] | 5.50^[a]
Cc1ccc(CC2CON=C(c3cc(Cl)ncc3Oc3cccc(C4CC4)c3)N2)c(C)c1 (racemic) [Compound I-013] | 4.89^[a]
Cc1ccc(CC(CCl)NC(=NO)c2cc(Cl)ncc2Oc2cccc(C(F)(F)F)c2)c(C)c1 (stereo not shown) [16-03] | 4.80^[a]
Cc1ccc(CC2CON=C(c3cc(Cl)ncc3Oc3cccc(N(C)C)c3)N2)c(C)c1 (stereo not shown) [Compound I-132] | 4.47^[a]
Cn1cc(C2CON=C(c3cc(Cl)ncc3Oc3cccc(C(F)(F)F)c3)N2)c2ccccc21 (racemic) [Compound I-096] | 4.01^[a]
COc1cccc(Oc2cnc(Cl)cc2C(=O)NC(CON)Cc2ccc(Br)cc2Cl)c1 (stereo not shown) [4-08] | 3.39^[a]
O=C(O)c1cc(Cl)nc(F)c1Oc1cccc(C(F)(F)F)c1 [Compound 1-14] | 2.95^[a]
NOCC(Cc1ccc(Cl)cc1Cl)NC(=O)c1cc(Cl)ncc1Oc1cccc(C2CC2)c1F (stereo not shown) [4-04] | 3.96^[a]
FC(F)(F)c1cccc(Oc2cnc(Cl)cc2C2=NOCC(Cc3ccc(Cl)cc3Cl)N2)n1 (racemic) [Compound I-128] | 4.44^[a]
O=C(NC(CCl)Cc1csc(C(F)(F)F)c1)c1cc(Cl)ncc1Oc1cccc(C(F)(F)F)c1 (stereo not shown) [14-10] | 4.96^[a]

###

Test: physchem
Format: physicochemical
# LogP values compiled below

molecule | LogP
Cc1ccc(CC2CON=C(c3cc(Cl)ncc3Oc3cccc(S(C)(=O)=O)c3)N2)c(C)c1 (racemic) | 3.25^[a]
N#Cc1ccc(C2CON=C(c3cc(Cl)ncc3Oc3cccc(C(F)(F)F)c3)N2)cc1 (racemic) | 3.30^[a]
Cc1ccc(CC(CCl)NC(=NO)c2c(Oc3cccc(C(F)(F)F)c3)cnc(Cl)c2F)c(C)c1 (stereo not drawn) | 5.74^[a]
C=Cc1cccc(Oc2cnc(Cl)cc2C2=NOCC(Cc3ccc(Cl)cc3Cl)N2)c1 (racemic) | 4.85^[a]
Cc1ccc(CC2CON=C(c3cc(C)ncc3Oc3cccc(Cl)c3)N2)c(C)c1 (racemic) | 3.76^[a]
COc1cccc(Oc2cnc(C)cc2C2=NOCC(Cc3ccc(C)cc3C)N2)c1 (racemic) | 3.29^[a]
